procedure_details: growth inhibition of WT strain, primary screen, mitochondrial fusion inhibitor project, WT and mutant strains, chemical genetic (AID 1362)
recorded_conditions: mitochondrial fusion phenotypic screen, mutant strain inhibition; at 10 µM
In all, about 190,000 compounds went through this assay and about 4,000 (2.1%) were called active. Shown is part of a subset that was picked to be rich in actives.
endpoint_name: inhibition
Quick note: number first, unit second.

Recorded results for 3 compounds are shown here.
O=C(Nc1cccc(S(=O)(=O)N2CCCCC2)c1)c1ccc2c(c1)OCO2 :: 4.97%
CCC(=O)N(Cc1cc2ccccc2[nH]c1=O)c1ccc(OC)cc1 :: 1.27%
O=C(Nc1ccc(Cl)cn1)c1ccc2c(c1)OCCO2 :: 29%

Note to self: inhibition recorded for Cc1ccc(C(=O)OC2CCCN(C)C2)cc1 (stereo unspecified) was -3.26%

Note to self: inhibition recorded for COCCN(C(=O)c1ccccc1F)c1c(N)n(Cc2ccccc2)c(=O)[nH]c1=O was 0.13%

Note to self: inhibition recorded for CC(=O)NCC(=O)N(Cc1ccco1)C1(C(=O)NC2CCCC2)CCCCC1 was 10.2%

Note to self: inhibition recorded for O=C(Nc1cccc(S(=O)(=O)Nc2ccc(Cl)cc2)c1)c1ccc2c(c1)OCCO2 was 29.9%

Note to self: inhibition recorded for Cc1[nH]c2ccccc2c1/C=C(/C#N)C(=O)NC(C)C was -5.17%

Note to self: inhibition recorded for CC1(C)C2CCC1(C)C(OC(=O)CCn1ccnc1)C2 (stereo unspecified) was -8.76%

Note to self: inhibition recorded for Cc1occc1C(=O)N1CCCc2ccccc21 was -8.66%

Note to self: inhibition recorded for COc1ccc(Cl)cc1NC(=O)C(C)N1CCc2ccccc21 (stereo unspecified) was 18.4%
